Data origin: patent US11566029B2

EXPERIMENTAL TARGET: CDK2/cycA1 (Homo sapiens, UniProt P24941)
TEST DESCRIPTION: In vitro kinase assay (PKLight luciferase ATP readout), CDK2
CONDITION: ATP at Km; read-out: In vitro Kinase Inhibition CDK2 IC50
pIC50: −log10 of the molar value. Structures can show the parent of a compound that is named as a salt.
MEASURED ENDPOINT: pIC50

(A) CC(C)c1cnn2c(NCC3CCCCC3)cc(NCC3(O)CCNCC3)nc12
(B) CC(C)c1cnn2c(NCc3ccccc3)cc(NC[C@]3(O)CCNC[C@H]3O)nc12 (racemic) [PPDA-002, hydrochloride]
Task: Between A and B , which one shows the smaller pIC50 number? # respond with the chosen item's label
Output: B

(I) CC(C)c1cnn2c(Nc3ccc(S(=O)(=O)N(C)C)cc3)cc(NC[C@H]3CCNC[C@@H]3O)nc12
(II) CC(C)c1cnn2c(NC3CCN(S(=O)(=O)c4ccc(F)cc4)CC3)cc(NC[C@H]3CCNC[C@@H]3O)nc12
Task: Between I and II , which one shows the smaller pIC50 number? # respond with the chosen item's label
Output: II
(II: 6.75, I: 7.42)

(a) CC(C)c1cnn2c(NCC3CCCCC3)cc(N[C@H]3CNC[C@H]3O)nc12
(b) CC(C)c1cnn2c(NCc3ccncc3)cc(NCC3(O)CCNCC3)nc12 [PPDA-010, hydrochloride]
Task: Between a and b , which one shows the smaller pIC50 number? # respond with the chosen item's label
Output: a
